experiment: Resmetirom exposure parameters by dose, quartile and body weight; type: in vivo, human; details: human, in vivo, oral, 80 mg; 90-<100 kg; read-out: AUCtau,ss Median
QUANTITY_NAME: AUC (ng·h/mL)
Your answer is read as ng·h/mL, so omit the unit and give the number.

Ask | Read off the recorded AUC for CC(C)c1cc(Oc2c(Cl)cc(-n3nc(C#N)c(=O)[nH]c3=O)cc2Cl)n[nH]c1=O
Reply | 5030

###

experiment: Resmetirom exposure parameters by dose, quartile and body weight; assay type: in vivo, human; details: human, in vivo, oral, 100 mg; 100-<110 kg; read-out: AUCtau,ss Mean
QUANTITY_NAME: AUC (ng·h/mL)
Write down the numeric answer in ng·h/mL and omit the unit.

Ask | Indicate the recorded AUC value for this compound: CC(C)c1cc(Oc2c(Cl)cc(-n3nc(C#N)c(=O)[nH]c3=O)cc2Cl)n[nH]c1=O [Resmetirom]
Reply | 7430

###

test: Resmetirom exposure parameters by dose, quartile and body weight; format: in vivo, human; settings: human, in vivo, oral, 100 mg; 90-<100 kg; read-out: Cmax,ss Median
QUANTITY_NAME: Cmax (ng/mL)
# unit: ng/mL | format: bare number

Ask | Please list Cmax recorded for the compound CC(C)c1cc(Oc2c(Cl)cc(-n3nc(C#N)c(=O)[nH]c3=O)cc2Cl)n[nH]c1=O [Resmetirom]
Reply | 1060

###

test: Resmetirom exposure parameters by dose, quartile and body weight; format: in vivo, human; conditions: human, in vivo, oral, 80 mg; ≥110 kg; read-out: Cmax,ss Geometric Mean
QUANTITY_NAME: Cmax (ng/mL)
Give your result in ng/mL as a bare value.

Ask | Give the value of Cmax reported for the following: CC(C)c1cc(Oc2c(Cl)cc(-n3nc(C#N)c(=O)[nH]c3=O)cc2Cl)n[nH]c1=O
Reply | 489

###

test: Effect of food (high-fat meal) on pharmacokinetics; assay type: in vivo, human; details: human, plasma, oral; high-fat meal vs fasted; read-out: delay in median Tmax with food
QUANTITY_NAME: Tmax

Ask | Specify Tmax for CC(C)c1cc(Oc2c(Cl)cc(-n3nc(C#N)c(=O)[nH]c3=O)cc2Cl)n[nH]c1=O [Resmetirom] and stop.
Reply | ~2 h

###

experiment: Resmetirom exposure parameters by dose, quartile and body weight; type: in vivo, human; settings: human, in vivo, oral, 100 mg; 80-<90 kg; read-out: AUCtau,ss Median
QUANTITY_NAME: AUC (ng·h/mL)
Please reply with the bare figure in ng·h/mL and do not write the unit itself.

Ask | Give the value of AUC reported for the following: CC(C)c1cc(Oc2c(Cl)cc(-n3nc(C#N)c(=O)[nH]c3=O)cc2Cl)n[nH]c1=O [Resmetirom]
Reply | 7550

###

assay: Resmetirom exposure parameters by dose, quartile and body weight; format: in vivo, human; details: human, in vivo, oral, 100 mg; 90-<100 kg; read-out: AUCtau,ss Median
QUANTITY_NAME: AUC
Record the result as number plus unit.

Ask | Find the measured AUC of CC(C)c1cc(Oc2c(Cl)cc(-n3nc(C#N)c(=O)[nH]c3=O)cc2Cl)n[nH]c1=O and report it.
Reply | 7600 ng·h/mL

###

assay: Resmetirom exposure parameters by dose, quartile and body weight; format: in vivo, human; conditions: human, in vivo, oral, 80 mg; 80-<90 kg; read-out: AUCtau,ss Geometric Mean
QUANTITY_NAME: AUC (ng·h/mL)
Reply numerically in ng·h/mL, unit not repeated.

Ask | Quickly give me recorded AUC for CC(C)c1cc(Oc2c(Cl)cc(-n3nc(C#N)c(=O)[nH]c3=O)cc2Cl)n[nH]c1=O [Resmetirom]
Reply | 6010

###

assay: Resmetirom exposure parameters by dose, quartile and body weight; assay type: in vivo, human; settings: human, in vivo, oral, 80 mg; <80 kg; read-out: AUCtau,ss Geometric Mean
QUANTITY_NAME: AUC (ng·h/mL)
Express the result in ng·h/mL but write the number alone.

Ask | Please report the measured AUC for CC(C)c1cc(Oc2c(Cl)cc(-n3nc(C#N)c(=O)[nH]c3=O)cc2Cl)n[nH]c1=O
Reply | 8080

###

assay: Resmetirom exposure parameters by dose, quartile and body weight; type: in vivo, human; settings: human, in vivo, oral, 100 mg; ≥110 kg; read-out: AUCtau,ss Geometric Mean
QUANTITY_NAME: AUC (ng·h/mL)
Please respond with the number in ng·h/mL and leave the unit unwritten.

Ask | Provide one value: measured AUC of CC(C)c1cc(Oc2c(Cl)cc(-n3nc(C#N)c(=O)[nH]c3=O)cc2Cl)n[nH]c1=O
Reply | 4330

###

test: Resmetirom exposure parameters by dose, quartile and body weight; assay type: in vivo, human; details: human, in vivo, oral, 100 mg; <80 kg; read-out: Cmax,ss Mean
QUANTITY_NAME: Cmax

Ask | # return recorded Cmax for entry CC(C)c1cc(Oc2c(Cl)cc(-n3nc(C#N)c(=O)[nH]c3=O)cc2Cl)n[nH]c1=O
Reply | 1310 ng/mL

###

Assay: Resmetirom exposure parameters by dose, quartile and body weight
Assay type: in vivo, human
Settings: human, in vivo, oral, 80 mg; 80-<90 kg; read-out: AUCtau,ss Median
Experimental: Various body weight cutoffs for dosing were evaluated.
QUANTITY_NAME: AUC (ng·h/mL)
Give just the numeric value; ng·h/mL need not be written.

Ask | State, in one line, measured AUC of CC(C)c1cc(Oc2c(Cl)cc(-n3nc(C#N)c(=O)[nH]c3=O)cc2Cl)n[nH]c1=O [Resmetirom]
Reply | 5750

###

assay: Resmetirom exposure parameters by dose, quartile and body weight; format: in vivo, human; conditions: human, in vivo, oral, 100 mg; 80-<90 kg; read-out: Cmax,ss Median
QUANTITY_NAME: Cmax
# output: number + unit

Ask | Supply Cmax value. Item: CC(C)c1cc(Oc2c(Cl)cc(-n3nc(C#N)c(=O)[nH]c3=O)cc2Cl)n[nH]c1=O [Resmetirom]
Reply | 1200 ng/mL

###

experiment: Resmetirom exposure parameters by dose, quartile and body weight; type: in vivo, human; conditions: human, in vivo, oral, 80 mg; <80 kg; read-out: Cmax,ss Mean
QUANTITY_NAME: Cmax (ng/mL)
Your answer should be a plain number; it is taken to be in ng/mL.

Ask | For CC(C)c1cc(Oc2c(Cl)cc(-n3nc(C#N)c(=O)[nH]c3=O)cc2Cl)n[nH]c1=O , write its Cmax.
Reply | 1210

###

experiment: Resmetirom exposure parameters by dose, quartile and body weight; assay type: in vivo, human; conditions: human, in vivo, oral, 100 mg; <80 kg; read-out: AUCtau,ss Geometric Mean
QUANTITY_NAME: AUC (ng·h/mL)
Write down the numeric answer in ng·h/mL and omit the unit.

Ask | Name the recorded AUC of the molecule listed here: CC(C)c1cc(Oc2c(Cl)cc(-n3nc(C#N)c(=O)[nH]c3=O)cc2Cl)n[nH]c1=O
Reply | 8680

###

Assay: Resmetirom exposure parameters by dose, quartile and body weight
Type: in vivo, human
Conditions: human, in vivo, oral, 100 mg; ≥110 kg; read-out: Cmax,ss Geometric Mean
Procedure: Various body weight cutoffs for dosing were evaluated.
QUANTITY_NAME: Cmax (ng/mL)
Express your answer in ng/mL, writing the number without its unit.

Ask | Look up Cmax of CC(C)c1cc(Oc2c(Cl)cc(-n3nc(C#N)c(=O)[nH]c3=O)cc2Cl)n[nH]c1=O and report it.
Reply | 575

###

assay: Resmetirom exposure parameters by dose, quartile and body weight; type: in vivo, human; details: human, in vivo, oral, 100 mg; 80-<90 kg; read-out: Cmax,ss Mean
QUANTITY_NAME: Cmax
Kindly format the answer as number then unit.

Ask | Name the recorded Cmax of the item CC(C)c1cc(Oc2c(Cl)cc(-n3nc(C#N)c(=O)[nH]c3=O)cc2Cl)n[nH]c1=O in your answer.
Reply | 1220 ng/mL

###

test: Resmetirom exposure parameters by dose, quartile and body weight; format: in vivo, human; conditions: human, in vivo, oral, 80 mg; 90-<100 kg; read-out: Cmax,ss Median
QUANTITY_NAME: Cmax (ng/mL)
A number alone suffices; assume ng/mL.

Ask | Given CC(C)c1cc(Oc2c(Cl)cc(-n3nc(C#N)c(=O)[nH]c3=O)cc2Cl)n[nH]c1=O [Resmetirom] , respond with its Cmax.
Reply | 795

###

experiment: Resmetirom exposure parameters by dose, quartile and body weight; assay type: in vivo, human; conditions: human, in vivo, oral, 80 mg; 80-<90 kg; read-out: AUCtau,ss Mean
QUANTITY_NAME: AUC (ng·h/mL)
# output: bare number, implied unit ng·h/mL

Ask | Please supply the value of reported AUC for the item CC(C)c1cc(Oc2c(Cl)cc(-n3nc(C#N)c(=O)[nH]c3=O)cc2Cl)n[nH]c1=O [Resmetirom]
Reply | 6660
